Entries and their Ki
# target or test system: Leukotriene B4 receptor (Homo sapiens, UniProt Q9NPC1+Q15722)
# experiment: Binding affinity towards human LTB4 receptor measured as inhibition of binding of [3H]LTB4 to isolated human neutrophils
readout type: Ki

# compound, result
rows = [
    ("CCCc1c(OCCCOc2cc(O)c(-c3ccccc3)cc2CC)ccc2c1OC(C(=O)O)CC2 (stereo not drawn)", "3.3 nM"),
    ("CCCc1c(OCCCOc2cc(O)c(-c3ccc(F)cc3)cc2CC)cccc1C(=O)c1ccccc1C(=O)O", "35 nM"),
    ("CCCc1c(OCCCOc2cc(O)c(-c3ccccc3)cc2CC)cccc1Oc1ccccc1C(=O)O", "19 nM"),
]
